Tested on: RADISH—cv F1 Apache
PROTOCOL_DESCRIPTION: Post-harvest shelf-life, auxins/precursors with or without AC
Assay type: in vivo
CONDITION_NOTES: ambient temperature; auxin/precursor 10^-2 Molar; AC 3 g per hectare equivalent; two applications
Labelling field: enter 1 (yes) if recorded Shelf-Life Duration (days after harvest) is less than 7 days. Enter 0 (no) if it equals or exceeds that cut-off.

# count of solved cases: 5
{"COMPOUND": "CC(N)=O [Acetamide]", "TARGET_OF_ASSAY": "RADISH—cv F1 Apache", "LABEL_CLASS": "0 (no)"}
{"COMPOUND": "CC(=O)Nc1ccc(O)cc1 [AC, N-(4-hydroxypheyl)acetamide, reference compound]", "TARGET_OF_ASSAY": "RADISH—cv F1 Apache", "LABEL_CLASS": "1 (yes)"}
{"COMPOUND": "Nc1ccccc1C(=O)[O-].[Na+] [Anthranilic Acid monosodium salt]", "TARGET_OF_ASSAY": "RADISH—cv F1 Apache", "LABEL_CLASS": "0 (no)"}
{"COMPOUND": "Nc1c(O)cccc1C(=O)O [3-Hydroxyanthranilic acid]", "TARGET_OF_ASSAY": "RADISH—cv F1 Apache", "LABEL_CLASS": "0 (no)"}
{"COMPOUND": "NC(=O)Cc1c[nH]c2ccccc12 [Indole-3-acetamide]", "TARGET_OF_ASSAY": "RADISH—cv F1 Apache", "LABEL_CLASS": "1 (yes)"}

Determine whether this compound shows Shelf-Life Duration (days after harvest) lower than 7 days (ties excluded): Nc1ccccc1C(=O)O [Anthranilic acid, anthranilic acid]
0 (no)

Determine whether this compound shows Shelf-Life Duration (days after harvest) lower than 7 days (ties excluded): N[C@@H](Cc1c[nH]c2ccccc12)C(=O)O [L-Tryptophan]
1 (yes)

Determine whether this compound shows Shelf-Life Duration (days after harvest) lower than 7 days (ties excluded): COC(=O)c1ccccc1N [Anthranilic acid methyl ester]
0 (no)
